assay_method_text: Clearance in Sprague-Dawley rat at 1 mg/kg, iv
Assay type: ADME, organism-based
protocol_conditions: in vivo
quantity_kind: clearance (mL/min/kg)
Quick note: give the figure in mL/min/kg, leave out the unit.

Input line: Find the recorded clearance belonging to C[C@]1(CN2Cc3nc(-c4ccc(F)cc4)sc3C2)CN=C(N)O1 and report it.
Output line: 24.6

* * *

Measured IC50 (Cytochrome P450 1A2 (Homo sapiens, UniProt P05177))

C[C@]1(CN2Cc3nc(-c4ccc(F)cc4)sc3C2)CN=C(N)O1; > 100 µM

Please look at the following compound next.
Input line: Item: C[C@]1(COc2ccc(N3CCC(Oc4ccc(OC(F)(F)F)cc4)CC3)cc2)Cn2cc([N+](=O)[O-])nc2O1 Test system: Cytochrome P450 1A2 (Homo sapiens, UniProt P05177) Read-out: IC50 Value: ?
Output line: > 100 µM

* * *

target_or_test_system: UniProtKB P10632
Sequence (P10632 whole entry): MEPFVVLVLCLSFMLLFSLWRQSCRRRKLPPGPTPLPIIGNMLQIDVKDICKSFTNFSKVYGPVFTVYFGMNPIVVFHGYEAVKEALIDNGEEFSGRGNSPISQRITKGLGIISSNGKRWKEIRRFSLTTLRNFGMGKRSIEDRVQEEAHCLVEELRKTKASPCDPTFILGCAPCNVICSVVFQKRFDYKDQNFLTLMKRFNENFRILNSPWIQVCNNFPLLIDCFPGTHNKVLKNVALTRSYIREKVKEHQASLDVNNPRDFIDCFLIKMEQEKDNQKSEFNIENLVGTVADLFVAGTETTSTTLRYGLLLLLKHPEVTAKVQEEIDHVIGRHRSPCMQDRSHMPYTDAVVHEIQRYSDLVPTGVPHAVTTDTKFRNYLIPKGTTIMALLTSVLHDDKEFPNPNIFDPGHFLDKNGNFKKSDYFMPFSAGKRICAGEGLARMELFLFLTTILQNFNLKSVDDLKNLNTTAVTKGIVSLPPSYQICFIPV
pIC50: −log10 of the molar value.
We begin with a simple list: items and their reported pIC50.

C[C@]1(COc2ccc(N3CCC(Oc4ccc(OC(F)(F)F)cc4)CC3)cc2)Cn2cc([N+](=O)[O-])nc2O1; < 4.00

Let us examine a further case.
Input line: Param readout= pIC50; system= UniProtKB P10632; entry= C[C@]1(CN2Cc3nc(-c4ccc(F)cc4)sc3C2)CN=C(N)O1 ; returns value.
Output line: < 4.00

* * *

assay_method_text: Oral bioavailability in Beagle dog at 2 mg/kg
Assay type: ADME, organism-based, Canis lupus familiaris
protocol_conditions: in vivo
quantity_kind: bioavailability

Input line: Could you tell me which bioavailability is on file for C[C@]1(CN2Cc3nc(-c4ccc(F)cc4)sc3C2)CN=C(N)O1 ?
Output line: 26.4%

* * *

assay_method_text: Cmax in CD-1 mouse at 5 mg/kg, po
Assay type: ADME, organism-based
Design: dose 5 mg/kg, route po
protocol_conditions: in vivo
quantity_kind: Cmax (ng/mL)
Write the value in ng/mL as a bare number.

Take a look at these entries with their results.
C[C@]1(CN2Cc3nc(-c4ccc(F)cc4)sc3C2)CN=C(N)O1; 753
C[C@]1(CN2Cc3nc(-c4ncc(F)cc4F)sc3C2)Cn2cc([N+](=O)[O-])nc2O1; 1010
C[C@]1(CN2Cc3nc(-c4ccc(F)cn4)sc3C2)Cn2cc([N+](=O)[O-])nc2O1; 385
Cc1cc(F)ccc1-c1nc2c(s1)CN(C[C@@]1(C)Cn3cc([N+](=O)[O-])nc3O1)C2; 201

With those in mind, consider the next molecule.
Input line: I am curious: what Cmax value has been reported for C[C@]1(CN2Cc3nc(-c4ccc(F)cc4F)sc3C2)Cn2cc([N+](=O)[O-])nc2O1 ?
Output line: 182

* * *

assay_method_text: Metabolic stability in rat liver microsomes assessed as half life
Assay type: ADME, Microsome
quantity_kind: half-life (min)
Please reply with the bare figure in min and do not write the unit itself.

Examples with answers:
C[C@]1(CN2Cc3nc(-c4ccc(F)cc4)sc3C2)CN=C(N)O1; 68
C[C@]1(CN2CCc3nc(-c4ccc(F)cc4)ccc3C2)Cn2cc([N+](=O)[O-])nc2O1; 6
C[C@]1(CN2CCc3nc(-c4ccc(F)cc4)sc3CC2)Cn2cc([N+](=O)[O-])nc2O1; 8

Input line: For C[C@]1(CN2Cc3nc(-c4ccc(F)cc4)oc3C2)Cn2cc([N+](=O)[O-])nc2O1 , what is its reported half-life?
Output line: 39

* * *

# maps each entry to its bioavailability
assay_method_text: Oral bioavailability in CD-1 mouse at 5 mg/kg
Assay type: ADME, organism-based
protocol_conditions: CD-1, mouse, in vivo
Write it as a number; the unit % goes unstated.

C[C@]1(CN2Cc3nc(-c4ccc(F)cn4)sc3C2)Cn2cc([N+](=O)[O-])nc2O1; 24.5

Could you now look at the following compound, please?
Input line: Requested read-out: bioavailability. Entry: C[C@]1(CN2Cc3nc(-c4ncc(F)cc4F)sc3C2)Cn2cc([N+](=O)[O-])nc2O1
Output line: 57.9

* * *

target_or_test_system: UniProt P10635
Sequence (P10635 whole entry): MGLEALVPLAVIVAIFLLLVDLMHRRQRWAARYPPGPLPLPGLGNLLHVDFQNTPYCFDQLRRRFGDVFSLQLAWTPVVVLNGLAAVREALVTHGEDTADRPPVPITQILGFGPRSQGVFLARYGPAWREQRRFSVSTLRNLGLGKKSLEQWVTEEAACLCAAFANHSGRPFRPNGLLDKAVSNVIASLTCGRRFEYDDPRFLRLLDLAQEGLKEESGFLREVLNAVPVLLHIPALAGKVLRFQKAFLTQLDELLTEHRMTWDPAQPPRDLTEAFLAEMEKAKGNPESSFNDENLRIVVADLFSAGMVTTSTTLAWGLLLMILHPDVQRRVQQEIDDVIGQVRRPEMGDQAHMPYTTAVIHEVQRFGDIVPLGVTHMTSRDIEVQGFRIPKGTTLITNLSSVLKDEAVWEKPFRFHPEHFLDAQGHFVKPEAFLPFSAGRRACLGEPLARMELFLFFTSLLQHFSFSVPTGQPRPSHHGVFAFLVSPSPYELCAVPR
quantity_kind: pIC50
Bear in mind: pIC50 is minus log10 of a mol/L concentration; give just that figure.

Input line: Reported pIC50, compound C[C@]1(CN2Cc3nc(-c4ccc(F)cc4)sc3C2)CN=C(N)O1 : ____
Output line: 4.09

* * *

Item-by-item account of fraction unbound
assay_method_text: Plasma protein binding in rat assessed as bound fraction
Format: ADME, cell-free
protocol_conditions: read-out: PPB (converted)
Answer with a bare number; do not write a unit.

C[C@]1(CN2Cc3nc(-c4ccc(F)cc4)sc3C2)CN=C(N)O1; 0.055

Consider now this further molecule.
Input line: For the molecule C[C@]1(COc2ccc(N3CCC(Oc4ccc(OC(F)(F)F)cc4)CC3)cc2)Cn2cc([N+](=O)[O-])nc2O1 , what fraction unbound is on record?
Output line: 0.004

* * *

assay_method_text: AUC (0-last) in CD-1 mouse at 5 mg/kg, po
Type: ADME, organism-based
Parameters: dose 5 mg/kg, route po
protocol_conditions: CD-1, mouse, in vivo
Property: AUC(0-t); scope: individual compounds
Use ng·h/mL as the unit, but write only the number.

C[C@]1(CN2Cc3nc(-c4ncc(F)cc4F)sc3C2)Cn2cc([N+](=O)[O-])nc2O1; 4990

For the next question, use this compound.
Input line: Find the recorded AUC(0-t) belonging to C[C@]1(CN2Cc3nc(-c4ccc(F)cn4)sc3C2)Cn2cc([N+](=O)[O-])nc2O1 and report it.
Output line: 2920

* * *

assay_method_text: Aqueous solubility of compound at pH 2.0
Format: physicochemical
protocol_conditions: buffer
quantity_kind: solubility (µM)
Write the answer as a number in µM, unit excluded.

Input line: solubility lookup needed for C[C@]1(CN2Cc3nc(-c4ccc(F)cc4)sc3C2)CN=C(N)O1 , thanks.
Output line: 32.2

* * *

assay_method_text: Plasma protein binding in human assessed as bound fraction
Assay type: ADME, cell-free
protocol_conditions: read-out: PPB (converted)
In this section, each of the molecules is paired with its reported fraction unbound.

C[C@]1(CN2Cc3nc(-c4ccc(F)cc4)sc3C2)CN=C(N)O1; 0.018

Input line: Which fraction unbound is listed for C[C@]1(COc2ccc(N3CCC(Oc4ccc(OC(F)(F)F)cc4)CC3)cc2)Cn2cc([N+](=O)[O-])nc2O1 ?
Output line: 0.005

* * *

Test system: Mycobacterium tuberculosis
assay_method_text: Antimycobacterial activity against Mycobacterium tuberculosis H37Rv assessed as bacterial growth inhibition incubated for 10 days under hypoxic condition followed by 28 hrs incubation under normoxic condition by Low-Oxygen-Recovery Assay
Format: functional
protocol_conditions: 264 h, time 11 day
Each entry below lists one item and its recorded MIC value.

C[C@]1(CN2Cc3nc(-c4ccc(F)cc4)sc3C2)CN=C(N)O1; 5.63 µg/mL

Input line: Quick check: MIC of C[C@]1(CN2CCc3nc(-c4ccc(F)cc4)sc3CC2)Cn2cc([N+](=O)[O-])nc2O1 ?
Output line: > 8 µg/mL

Input line: Any idea what MIC was measured for C[C@]1(CN2CCc3nc(-c4ccc(F)cc4)ccc3C2)Cn2cc([N+](=O)[O-])nc2O1 ?
Output line: 4.83 µg/mL

Input line: Returns the measured MIC for the input compound. Input: C[C@]1(COc2ccc(N3CCC(Oc4ccc(OC(F)(F)F)cc4)CC3)cc2)Cn2cc([N+](=O)[O-])nc2O1
Output line: 0.61 µg/mL

* * *

Lab note: IC50 readings collected with Cytochrome P450 2C19 (Homo sapiens, UniProt P33261) for the following molecules.
Sequence (P33261 whole entry): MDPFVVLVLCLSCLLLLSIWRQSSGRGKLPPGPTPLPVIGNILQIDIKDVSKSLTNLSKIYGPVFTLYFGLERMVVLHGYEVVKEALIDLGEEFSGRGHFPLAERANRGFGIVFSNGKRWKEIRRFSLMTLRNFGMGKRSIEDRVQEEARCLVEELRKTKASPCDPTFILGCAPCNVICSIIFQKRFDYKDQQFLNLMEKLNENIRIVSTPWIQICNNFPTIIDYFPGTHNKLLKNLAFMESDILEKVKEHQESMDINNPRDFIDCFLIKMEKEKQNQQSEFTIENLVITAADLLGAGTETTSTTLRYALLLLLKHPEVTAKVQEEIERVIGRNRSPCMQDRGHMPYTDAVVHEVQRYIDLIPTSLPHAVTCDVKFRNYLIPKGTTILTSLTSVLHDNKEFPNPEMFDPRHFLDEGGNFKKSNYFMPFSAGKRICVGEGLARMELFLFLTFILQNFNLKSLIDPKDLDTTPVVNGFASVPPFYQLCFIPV

C[C@]1(CN2Cc3nc(-c4ccc(F)cc4)sc3C2)CN=C(N)O1; > 100 µM

Turning to the following molecule.
Input line: Item C[C@]1(COc2ccc(N3CCC(Oc4ccc(OC(F)(F)F)cc4)CC3)cc2)Cn2cc([N+](=O)[O-])nc2O1 with Cytochrome P450 2C19 (Homo sapiens, UniProt P33261) - IC50?
Output line: > 100 µM
